Numbers sourced from patent US5985900A.

Parameter: pKi. Scope: all listed entries.
target: UniProtKB P08253; experiment: In vitro MMP inhibition assay (hydrolysis of fluorogenic MCA peptide substrate), gelatinase A; type: biochemical; details: Table 1; Ki,app; MCA peptide substrate 10 μM, 37° C., pH 7.5, 2% DMSO; read-out: Gel A
Sequence (P08253 110-446 limits assumed): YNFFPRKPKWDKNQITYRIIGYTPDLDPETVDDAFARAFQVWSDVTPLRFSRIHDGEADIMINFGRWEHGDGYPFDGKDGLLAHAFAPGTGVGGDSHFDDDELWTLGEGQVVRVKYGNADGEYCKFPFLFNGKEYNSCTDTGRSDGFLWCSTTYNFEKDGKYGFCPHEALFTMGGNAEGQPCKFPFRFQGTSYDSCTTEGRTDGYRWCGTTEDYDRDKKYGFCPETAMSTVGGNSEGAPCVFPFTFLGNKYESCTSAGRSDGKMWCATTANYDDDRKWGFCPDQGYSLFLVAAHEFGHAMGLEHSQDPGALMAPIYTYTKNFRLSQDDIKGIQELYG
pKi: −log10 of the molar value.

{"Compound": "CC(C)(SCc1ccccn1)[C@@H](NS(=O)(=O)c1ccc(Oc2ccc(I)cc2)cc1)C(=O)O [Example 3i]", "pKi": 8.48}
{"Compound": "CC(C)(C)[C@@H](NS(=O)(=O)c1ccc(Oc2ccccc2)cc1)C(=O)O [Example 3r]", "pKi": 6.98}
{"Compound": "CC(C)(SCC(=O)O)[C@@H](NS(=O)(=O)c1ccc(Oc2ccc(F)cc2)cc1)C(=O)NO [Example 12]", "pKi": 9.28}
{"Compound": "CC(C)(SCc1ccncc1)[C@@H](NS(=O)(=O)c1ccc(Oc2ccc(F)cc2)cc1)C(=O)O [Example 3f]", "pKi": 6.51}
{"Compound": "CC(C)(SCc1ccccn1)[C@@H](NS(=O)(=O)c1ccc(Oc2ccc(C(F)(F)F)cc2)cc1)C(=O)O [Example 3j]", "pKi": 7.32}
{"Compound": "CC(C)(C)OC(=O)CSC(C)(C)[C@@H](NS(=O)(=O)c1ccc(Oc2ccc(F)cc2)cc1)C(=O)O [Example 3n]", "pKi": 6.74}
{"Compound": "CC(C)(SCc1cccnc1)[C@@H](NS(=O)(=O)c1ccc(Oc2ccc(F)cc2)cc1)C(=O)O [Example 3e]", "pKi": 6.29}
{"Compound": "CC(C)(SCCO)[C@@H](NS(=O)(=O)c1ccc(Oc2ccc(F)cc2)cc1)C(=O)O [Example 8a]", "pKi": 6.43}
{"Compound": "Cc1cc(CSC(C)(C)[C@@H](NS(=O)(=O)c2ccc(Oc3ccc(Br)cc3)cc2)C(=O)O)no1 [Example 3k]", "pKi": 8.38}
{"Compound": "Cc1cc(CSC(C)(C)[C@@H](NS(=O)(=O)c2ccc(Oc3ccc(F)cc3)cc2)C(=O)O)no1 [Example 3l]", "pKi": 7.45}

###

Target: UniProtKB P08254
Sequence (P08254 100-272 limits assumed): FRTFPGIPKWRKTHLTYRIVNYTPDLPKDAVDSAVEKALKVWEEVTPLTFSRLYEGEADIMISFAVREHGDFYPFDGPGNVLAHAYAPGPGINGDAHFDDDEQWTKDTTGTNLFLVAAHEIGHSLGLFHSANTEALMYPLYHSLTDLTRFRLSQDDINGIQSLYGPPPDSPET
Assay: In vitro MMP inhibition assay (hydrolysis of fluorogenic MCA peptide substrate), stromelysin
Format: biochemical
Details: Table 1; Ki,app; MCA peptide substrate 10 μM, 37° C., pH 7.5, 2% DMSO; read-out: Sin Ki
Procedure: The catalytic domain of human stromelysin (Sln) was obtained by expression and purification of a C-terminally truncated prostromelysin-1 from E. coli host BL21 (see Marcy et al. Biochem., 1991, 30, 6476). […] The assay method was based on the hydrolysis of MCA-Pro-Leu-Gly-Leu-DPA-Ala-Arg-NH2 (American Peptide Co.) at 37° C. […] The fluorescence changes were monitored with a Perkin-Elmer LS-50B fluorimeter using an excitation wavelength of 328 nm and an emission wavelength of 393 nm. […]
pKi: −log10 of the molar value.

{"Molecule": "CC(C)(SCCO)[C@@H](NS(=O)(=O)c1ccc(Oc2ccc(F)cc2)cc1)C(=O)O [Example 8a]", "pKi": 4.90}
{"Molecule": "CC(C)(C)[C@@H](NS(=O)(=O)c1ccc(Oc2ccccc2)cc1)C(=O)O [Example 3r]", "pKi": 4.89}
{"Molecule": "Cc1cc(CSC(C)(C)[C@@H](NS(=O)(=O)c2ccc(Oc3ccncc3)cc2)C(=O)O)no1 [Example 4b]", "pKi": 6.12}
{"Molecule": "CC(C)(SCc1ccccc1)[C@@H](NS(=O)(=O)c1ccc(Oc2ccccc2)cc1)C(=O)O [Example 3m]", "pKi": 6.00}
{"Molecule": "CC(C)(C)[C@@H](NS(=O)(=O)c1ccc(Oc2ccc(Cl)cc2)cc1)C(=O)O [Example 3p]", "pKi": 5.02}
{"Molecule": "CC(C)(SCc1ccccn1)[C@@H](NS(=O)(=O)c1ccc(Oc2ccc(Br)cc2)cc1)C(=O)O [Example 3d]", "pKi": 5.82}
{"Molecule": "COC(=O)CCSC(C)(C)[C@@H](NS(=O)(=O)c1ccc(Oc2ccc(F)cc2)cc1)C(=O)O [Example 7]", "pKi": 4.98}
{"Molecule": "CC(C)(SCc1nccn1Cc1ccccc1)[C@@H](NS(=O)(=O)c1ccc(Oc2ccc(F)cc2)cc1)C(=O)O [Example 3a]", "pKi": 5.89}
{"Molecule": "Cc1ccc(Oc2ccc(S(=O)(=O)N[C@@H](C(=O)O)C(C)(C)SCc3ccccn3)cc2)cc1 [Example 3g]", "pKi": 5.88}
